Data credit: the nanobody polyreactivity screen of Harvey et al. (2022)

Assay info: yeast display, Sf9 membrane polyspecificity reagent, FACS + sequencing; frameworks hold sequencing errors

- Sequence: "QVQLVESGGGLVQAGGSLRLSCAASGSSFPENAMGWYRQAPGKERQLVAGISRSDAGTHYADSVKGRFTISRDNAKNTVYVQMNSLKPEDTAVYYFDAGGTDEDRLTSWVGLFPAYYYWGQATQVTVSS"
  polyreactivity (PSR sort gate): "low polyreactivity"
- Sequence: "QVQLVESGGGLVQAGGSLRLSCAASGSIFIYYAMGWYRQAPGKERELVARITGGGSTYYADSVKGRFTISRDNAKNTVYLQMNSLKPEDTAVYYCAKRGYHFLTKYDYWGQGTQVTVSS"
  polyreactivity (PSR sort gate): "low polyreactivity"
- Sequence: "QVQLVESGGGLVQAGGSLRLSCASSGRTFRYYTMGWYRQAPGKEREFVAAISSTGGTYYADSVKGRFTISRDNAKNTVYFQMNSLIPVDTAVYYCAATFIKVVVNVQLYDYDYWGQGTQVTVSS"
  polyreactivity (PSR sort gate): "low polyreactivity"
